These entries and their values trace back to patent US11415579B2.

We begin with a simple list: items and their reported Rate constant with Cdk2 N272C.
# assayed-system: Cdk2(N272C) (C177A) (Homo sapiens, UniProt P24941, C177A/N272C)
# Construct: poly-histidine; made in house; host or cells: E. coli
# assay-name: Kinetic thiol consumption assay with Cdk2 mutant N272C
# Format: binding
# test-conditions: Protein: Cdk2; cysteine position N272C; additional mutation C177A; in h^-1
measured-property: Rate constant with Cdk2 N272C

{"compound": "C=CC(=O)Nc1ccccc1C(=O)c1ccccc1 [EL-1004]", "numeric-result": 0.007455}
{"compound": "C=CC(=O)Nc1[nH]nc(C2CC2)c1-c1ccc2c(c1)OCO2 [CA-041]", "numeric-result": 0.004727}
{"compound": "C=CC(=O)N1CCn2c(Cc3ccccc3)nnc2C1 [CA-092]", "numeric-result": 0.5985}
{"compound": "C=CC(=O)NC1CCN(Cc2ccccc2)CC1 [BN-78]", "numeric-result": 0.003673}
{"compound": "C=CC(=O)NCc1ccc(C(=O)OC)cc1 [BN-65]", "numeric-result": 0.002156}
{"compound": "C=CC(=O)N1CCOC2(CCCCC2)C1 [CA-193]", "numeric-result": 0.02375}
{"compound": "C=CC(=O)N1CCCC(C(=O)OCC)C1 (centres unmarked) [EL-1187]", "numeric-result": 0.00704}
{"compound": "C=CC(=O)N(Cc1ccco1)Cc1ccco1 [CA-099/153]", "numeric-result": 0.5081}
{"compound": "C=CC(=O)NC1CC(NC(=O)C2CCC2)C1 (centres unmarked) [CA-202]", "numeric-result": 0.004999}
{"compound": "C=CC(=O)NC(C)c1cccc(N2CCOCC2)c1 (centres unmarked) [EL-1153]", "numeric-result": 0.0128}
{"compound": "N#Cc1ccncn1 [EN007]", "numeric-result": 0.001652}
{"compound": "C=CC(=O)N(CC(=O)NC1CC1)C1CC1 [CA-031]", "numeric-result": 0.02034}
{"compound": "C=CC(=O)N1CCCC(N2C(=O)CC3(CCCC3)C2=O)C1 (centres unmarked) [CA-236]", "numeric-result": 0.0009059}
{"compound": "C=CC(=O)NCc1ccccc1 [CA-009]", "numeric-result": 0.009206}
